// provenance: paper PMC5700166

Target: GST-Dm-Relish (Drosophila melanogaster, UniProt Q94527 99-473)
Sequence: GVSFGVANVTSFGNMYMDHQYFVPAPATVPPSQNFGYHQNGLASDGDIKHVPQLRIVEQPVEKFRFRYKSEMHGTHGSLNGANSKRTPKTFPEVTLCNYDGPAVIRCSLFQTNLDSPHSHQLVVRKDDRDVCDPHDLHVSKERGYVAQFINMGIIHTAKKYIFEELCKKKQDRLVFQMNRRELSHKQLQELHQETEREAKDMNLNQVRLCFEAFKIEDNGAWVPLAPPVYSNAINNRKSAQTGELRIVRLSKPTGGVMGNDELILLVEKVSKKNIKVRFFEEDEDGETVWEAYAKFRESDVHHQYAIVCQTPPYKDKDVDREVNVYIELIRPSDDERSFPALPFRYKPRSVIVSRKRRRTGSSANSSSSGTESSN
Assay: protein-binding microarray (PBM); PBM: ~300 nM protein, 6 mM HEPES pH 7.8, 80 mM KCl, 0.5 mM EDTA, 0.5 mM EGTA, 6% glycerol, 35 ng/ul poly-dIdC, 1% milk, 1 h, room temperature; high values mean tight binding
Settings: dsDNA, one strand shown
binding signal vs 2 z-score: at or above is 1, below is -1.

polymer_sequence=CCGATTAACATCAGGGGAAACGATGATGTTAATCGGGTCTTGATTCGCTTGACGCTGCTG test_target="GST-Dm-Relish (Drosophila melanogaster, UniProt Q94527 99-473)" group=-1
polymer_sequence=CCGATTAACATCAGATTTTTCCCTGATGTTAATCGGGTCTTGATTCGCTTGACGCTGCTG test_target="GST-Dm-Relish (Drosophila melanogaster, UniProt Q94527 99-473)" group=-1
polymer_sequence=CCGATTAACATCAAGGGGGGGCGTGATGTTAATCGGGTCTTGATTCGCTTGACGCTGCTG test_target="GST-Dm-Relish (Drosophila melanogaster, UniProt Q94527 99-473)" group=1
polymer_sequence=CCGATTAACATCAAAATTTCCGGTGATGTTAATCGGGTCTTGATTCGCTTGACGCTGCTG test_target="GST-Dm-Relish (Drosophila melanogaster, UniProt Q94527 99-473)" group=-1
polymer_sequence=CCGATTAACATCAGGGGAATACATGATGTTAATCGGGTCTTGATTCGCTTGACGCTGCTG test_target="GST-Dm-Relish (Drosophila melanogaster, UniProt Q94527 99-473)" group=1

Reported binding signal at or above 2 z-score? CCGATTAACATCAAAAATCCCGGTGATGTTAATCGGGTCTTGATTCGCTTGACGCTGCTG
1

Reported binding signal at or above 2 z-score? CCGATTAACATCACTACTTTCCCTGATGTTAATCGGGTCTTGATTCGCTTGACGCTGCTG
-1

Reported binding signal at or above 2 z-score? CCGATTAACATCACCCTGGGAAATGATGTTAATCGGGTCTTGATTCGCTTGACGCTGCTG
-1

Reported binding signal at or above 2 z-score? CCGATTAACATCAGGACCTCCCCTGATGTTAATCGGGTCTTGATTCGCTTGACGCTGCTG
1

---

Molecular target: GST-Nv-NF-kB (Cys allele) (Nematostella vectensis, UniProt E5G601 2-411)
Sequence: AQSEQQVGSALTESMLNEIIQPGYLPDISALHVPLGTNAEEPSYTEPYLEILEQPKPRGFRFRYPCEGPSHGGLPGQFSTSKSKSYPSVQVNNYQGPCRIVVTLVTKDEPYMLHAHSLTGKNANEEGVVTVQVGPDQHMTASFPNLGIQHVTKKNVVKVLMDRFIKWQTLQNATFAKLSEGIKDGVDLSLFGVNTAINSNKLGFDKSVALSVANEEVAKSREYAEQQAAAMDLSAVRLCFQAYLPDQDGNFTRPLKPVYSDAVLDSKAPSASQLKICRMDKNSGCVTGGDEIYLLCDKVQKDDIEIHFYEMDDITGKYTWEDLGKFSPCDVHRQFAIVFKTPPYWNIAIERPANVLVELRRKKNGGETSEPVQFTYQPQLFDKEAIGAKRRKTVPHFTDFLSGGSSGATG
Test: protein-binding microarray (PBM); PBM: ~300 nM protein, 6 mM HEPES pH 7.8, 80 mM KCl, 0.5 mM EDTA, 0.5 mM EGTA, 6% glycerol, 35 ng/ul poly-dIdC, 1% milk, 1 h, room temperature; Ap Aiptasia and Nv Nematostella (sea anemones) / Co Capsaspora / Aq Amphimedon (sponge) / Dm Drosophila / Hu human; RHD is the Rel homology domain; high values mean tight binding
Settings: dsDNA, one strand shown
Parameter: binding signal. Scope: all listed entries.
Units required after the number.

Study these solved cases before continuing.
polymer_sequence=CCGATTAACATCAGAAACCCCCATGATGTTAATCGGGTCTTGATTCGCTTGACGCTGCTG obs_value="6.32 z-score"
polymer_sequence=CCGATTAACATCACGGGACCCCCTGATGTTAATCGGGTCTTGATTCGCTTGACGCTGCTG obs_value="3.01 z-score"
polymer_sequence=CCGATTAACATCAAAACCCCCCGTGATGTTAATCGGGTCTTGATTCGCTTGACGCTGCTG obs_value="6.29 z-score"
polymer_sequence=CCGATTAACATCAAGGGGAATACTGATGTTAATCGGGTCTTGATTCGCTTGACGCTGCTG obs_value="9.26 z-score"
polymer_sequence=CCGATTAACATCACAATATCCCCTGATGTTAATCGGGTCTTGATTCGCTTGACGCTGCTG obs_value="6.58 z-score"

Could you please provide reported binding signal for CCGATTAACATCACAGTCCCCCCTGATGTTAATCGGGTCTTGATTCGCTTGACGCTGCTG ? Thanks!
5.07 z-score

Could you please provide reported binding signal for CCGATTAACATCAGGAACACCCCTGATGTTAATCGGGTCTTGATTCGCTTGACGCTGCTG ? Thanks!
1.33 z-score

Could you please provide reported binding signal for CCGATTAACATCAGGGAAAAAAATGATGTTAATCGGGTCTTGATTCGCTTGACGCTGCTG ? Thanks!
5.81 z-score

Could you please provide reported binding signal for CCGATTAACATCAGGACTTGCCCTGATGTTAATCGGGTCTTGATTCGCTTGACGCTGCTG ? Thanks!
1.11 z-score
